Collected pIC50 values appear next to each entry.
- targetDesc: VEGFR2, unphosphorylated (Homo sapiens (Human))
- Sequence (P35968 20-1356): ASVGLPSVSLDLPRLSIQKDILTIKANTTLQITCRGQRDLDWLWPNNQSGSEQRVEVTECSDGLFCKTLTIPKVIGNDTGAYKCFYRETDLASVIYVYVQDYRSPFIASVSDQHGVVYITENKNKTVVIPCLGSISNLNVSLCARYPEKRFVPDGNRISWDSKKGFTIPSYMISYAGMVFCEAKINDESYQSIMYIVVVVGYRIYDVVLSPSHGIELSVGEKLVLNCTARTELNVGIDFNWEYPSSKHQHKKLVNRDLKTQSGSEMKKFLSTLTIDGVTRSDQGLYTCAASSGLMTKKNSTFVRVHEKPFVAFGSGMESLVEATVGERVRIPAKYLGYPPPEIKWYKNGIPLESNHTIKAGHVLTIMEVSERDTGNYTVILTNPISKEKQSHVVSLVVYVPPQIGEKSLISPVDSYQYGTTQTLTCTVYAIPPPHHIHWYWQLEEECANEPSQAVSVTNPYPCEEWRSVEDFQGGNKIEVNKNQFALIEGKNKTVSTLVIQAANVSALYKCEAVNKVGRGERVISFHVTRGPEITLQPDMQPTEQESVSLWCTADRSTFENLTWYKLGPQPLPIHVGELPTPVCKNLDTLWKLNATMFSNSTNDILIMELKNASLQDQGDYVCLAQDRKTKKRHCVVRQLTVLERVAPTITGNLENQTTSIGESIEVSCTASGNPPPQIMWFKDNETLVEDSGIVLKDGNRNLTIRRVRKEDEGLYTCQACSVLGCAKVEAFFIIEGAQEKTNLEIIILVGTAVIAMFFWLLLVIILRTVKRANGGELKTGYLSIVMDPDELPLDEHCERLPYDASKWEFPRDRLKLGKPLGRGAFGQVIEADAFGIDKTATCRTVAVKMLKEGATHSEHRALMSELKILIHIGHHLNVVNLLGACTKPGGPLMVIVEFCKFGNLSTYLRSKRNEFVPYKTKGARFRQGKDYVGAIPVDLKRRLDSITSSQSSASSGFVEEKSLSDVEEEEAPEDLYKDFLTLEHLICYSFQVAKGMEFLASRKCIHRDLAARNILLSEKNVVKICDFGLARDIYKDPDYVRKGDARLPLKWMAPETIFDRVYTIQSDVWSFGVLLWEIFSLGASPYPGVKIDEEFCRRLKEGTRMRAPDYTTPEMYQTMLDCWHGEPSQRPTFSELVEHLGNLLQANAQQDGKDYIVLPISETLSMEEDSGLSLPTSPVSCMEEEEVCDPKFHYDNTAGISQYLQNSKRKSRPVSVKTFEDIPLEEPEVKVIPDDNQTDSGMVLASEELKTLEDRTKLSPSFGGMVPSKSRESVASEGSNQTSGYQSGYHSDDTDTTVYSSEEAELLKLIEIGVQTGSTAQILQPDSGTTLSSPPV
- assaySummary: VEGFR ADP GLO Assay
pIC50: −log10 of the molar value.

Worked examples follow.
Cc1ncc(C(=O)NCCN2CCCC2(C)C)cc1NC(=O)c1cnn2cc(-c3cnn(C4CC4)c3)sc12 ... < 5.12
Cc1ncc(NC(=O)CN2CC(C)(C)C2)cc1NC(=O)c1cnn2cc(-c3cnn(CC4CC4)c3)sc12 ... < 5.12
Cc1ncc(NC(=O)OCC(C)(C)N2CCCC2)cc1NC(=O)c1cnn2cc(-c3cnn(C)c3)sc12 ... < 5.12

[Q] So what does the record say about pIC50 for Cc1ncc(NC(=O)CN2CCC[C@@H]2C)cc1NC(=O)c1cnn2cc(-c3cnn4c3OCCC4)sc12 ?
[A] < 5.12

[Q] Record: Cc1ncc(C(=O)NCCN2CCCC2(C)C)cc1NC(=O)c1cnn2cc(-c3cnn(Cc4cc(OCc5ccccc5)no4)c3)sc12
[A] < 5.60

[Q] Record: Cc1ncc(NC(=O)CN2CC(C)(C)C2)cc1NC(=O)c1cnn2cc(-c3c[nH]c4ccccc34)sc12
[A] 5.76

[Q] Record: Cc1ncc(NC(=O)CN2CC(C)(C)C2)cc1NC(=O)c1cnn2cc(-c3c(C)noc3C)sc12
[A] < 5.12
